# DC50 listing for each entry below
targetOrTestSystem: BRAF V600E (Homo sapiens, UniProt P15056, V600E)
Construct: expressed in transfected cells
Sequence (P15056 whole entry V600E): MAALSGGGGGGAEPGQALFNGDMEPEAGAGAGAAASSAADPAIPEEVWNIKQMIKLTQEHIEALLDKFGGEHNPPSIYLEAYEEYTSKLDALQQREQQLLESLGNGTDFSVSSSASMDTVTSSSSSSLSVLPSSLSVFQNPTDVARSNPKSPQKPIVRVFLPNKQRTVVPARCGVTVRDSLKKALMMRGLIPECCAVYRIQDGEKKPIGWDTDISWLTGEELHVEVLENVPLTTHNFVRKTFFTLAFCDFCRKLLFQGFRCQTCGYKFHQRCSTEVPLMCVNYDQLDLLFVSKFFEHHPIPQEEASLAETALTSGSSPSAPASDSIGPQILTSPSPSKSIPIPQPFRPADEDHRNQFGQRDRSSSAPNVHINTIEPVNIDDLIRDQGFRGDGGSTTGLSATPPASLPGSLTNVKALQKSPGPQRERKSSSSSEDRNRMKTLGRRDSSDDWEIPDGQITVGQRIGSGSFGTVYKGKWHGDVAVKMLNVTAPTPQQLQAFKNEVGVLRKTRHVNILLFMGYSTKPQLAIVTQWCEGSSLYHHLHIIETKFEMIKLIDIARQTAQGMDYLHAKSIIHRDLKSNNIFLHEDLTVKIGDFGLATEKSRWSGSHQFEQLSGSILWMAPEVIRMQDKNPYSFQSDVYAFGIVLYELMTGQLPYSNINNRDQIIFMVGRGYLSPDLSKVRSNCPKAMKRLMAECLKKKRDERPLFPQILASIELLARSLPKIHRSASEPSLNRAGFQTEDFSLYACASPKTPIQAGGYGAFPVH
procedureText: Cellular assay of target protein degradation, T-Rex 293 cells stably transfected with HA-BRAF_V600E (HA immunofluorescence, high content imaging)
Type: cell-based
measurementConditions: half maximal degradation, T-Rex 293 HA-BRAF V600E; read-out: BRaf V600E DC50

These solved cases illustrate the format of a correct answer.
[
  {
    "compound": "O=C1CCC(N2Cc3cc(C(O)CCN4CC5(C4)CN(c4ccc(-c6cnc7[nH]cc(C(=O)c8c(F)ccc(NS(=O)(=O)N9CC[C@@H](F)C9)c8F)c7c6)cc4)C5)ccc3C2=O)C(=O)N1 (stereo partly drawn) [Compound 61]",
    "DC50": "5 to 50 nM"
  },
  {
    "compound": "O=C1CC[C@@H](NC(=O)N2CCCc3c(N4CC5(CN(CCc6ccc(-c7cnc8[nH]cc(C(=O)c9c(F)ccc(NS(=O)(=O)N%10CC[C@@H](F)C%10)c9F)c8c7)cc6)C5)C4)ccnc32)C(=O)N1 [Compound 380]",
    "DC50": "> 500 nM"
  }
]

Next compound, please.
Requested read-out: DC50. Entry: O=C1CC[C@@H](N2Cc3cc([C@@H](O)CCN4CCN(c5ccc(-c6cnc7[nH]cc(C(=O)c8c(F)ccc(NS(=O)(=O)N9CC[C@@H](F)C9)c8F)c7c6)cc5)CC4)c(F)cc3C2=O)C(=O)N1 [Compound 301] 50 to 500 nM
